Assay text: NCI Yeast Anticancer Drug Screen. Data for the sgs1 mgt1 strain (AID 161);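 note: 0% = growth of cultures given vehicle only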
Condition set: S. cerevisiae sgs1 mgt1 strain, at 5.0 µM (retest, dose inferred, filed as 0.5), hits give high values
The panel holds about 79,000 compounds, 15% with a hit somewhere; the sample as a whole holds those more often.
Quantity: growth inhibition (%)
Answers are plain numbers, in %.

CC[Si](CC)(CC)c1ccc(CCNCCS)s1 : 52
CS(C)=O.[Cl-].[Cl-].[NH-]CC(O)CN(Cc1ccccc1)CC(O)CN.[Pt] (stereo unspecified) : 2
CC(=O)OC1CCCCCCCCCCC12OCCO2 (stereo unspecified) : 20
CCCCCC/C=C/C#CCCCCCCCC(=O)O : 33
Cc1c(Cl)ccc2c1NC(=O)C2(O)CC(=O)c1ccc(Cl)cc1 (stereo unspecified) : 31
CCCCOC(=O)C#CC(=O)OCCCC : -64
CSC(=S)OC1CC(n2cnc3c(NC(=O)c4ccccc4)ncnc32)OC1CO[Si](C)(C)C(C)(C)C (stereo unspecified) : -1
Cc1cc(N)c(C)c2c1[nH]c1ccc(Br)cc12 : -6

Dear reader, for each entry below, please note its growth inhibition.
1. CCOC(=O)N1c2ccc3ccccc3c2C=CC1C#N (stereo unspecified)
2. OC(Cc1cccnc1)(c1ccccc1)c1ccc(Cl)cc1 (stereo unspecified)
3. O=C1/C(=C/c2ccc3c(c2)OCO3)Sc2scc(-c3ccc(O)c(O)c3)[n+]21

-1
6
67

###

Exercise: for every item that follows, state its recorded growth inhibition.
Assay text: NCI Yeast Anticancer Drug Screen. Data for the mec2-1 strain (AID 157)
Condition set: S. cerevisiae mec2-1 strain, at 5.0 µM (retest, dose inferred, filed as 0.5), hits give high values
About 79,000 compounds went through this panel and 15% of them were active in at least one assay; those are over-represented in the sample as a whole.
Numbers only, in %.

Here's what some known entries look like.
CCCCNC(=O)OCc1c(COC(=O)NCCCC)c(-c2ccc(Cl)c(Cl)c2)n2c1CCC2 : 27
[N-]=[N+]=NC1=CC(=O)c2cccc3cccc1c23 : 31
C=C1C(=O)C23CC[C@H]4C(C)(CCC[C@]4(C)C(=O)O)[C@@H]2CCC1C3 (some centres not stated) : 96
CC(C)Sc1nc(NC(=O)N(CCCl)N=O)cc(=O)[nH]1 : -4
S=P([S][Sn]([S]P(=S)(c1ccccc1)c1ccccc1)([c]1ccccc1)[c]1ccccc1)(c1ccccc1)c1ccccc1 : 21
C=C1C(=O)O[C@H]2C3C(=C(C)CC[C@@H]12)C(=O)[C@@H]1OC31C (some centres not stated) : 16

Dear reader, for each entry below, please note its growth inhibition.
1. O=C(N/N=C/c1cc(Br)ccc1O)c1ccccc1
2. Oc1c(Br)cc(Br)cc1-c1ccccc1
3. CCCCc1[nH]ccc2c(C)c3nc4ccccc4c3cc12
4. CC1(C)C2CCC(C2)C1OC(=O)c1ccccc1C(=O)O (configuration not stated)
5. CC1CCC(C(C)(C)c2ccc(O)cc2)CC1 (configuration not stated)
6. O=C(c1ccc(O)c(Br)c1)c1cc(Br)ccc1O

1: 32; 2: 9; 3: -8; 4: -2; 5: -1; 6: 77

###

Assay text: NCI Yeast Anticancer Drug Screen. Data for the cln2 rad14 strain (AID 165);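 note: 0% = growth equal to vehicle treated cultures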
Condition set: S. cerevisiae cln2 rad14 strain, at 50.0 µM
Compounds without any hit were thinned out: in the full panel of roughly 79,000, 15% have a hit. Calls of active or inactive are those of the source. Rule as the data show it: active = growth inhibition above about 70%; inactive = the rest.
Give your call using only these classes: 1 (active), -1 (inactive)

O=C(O)c1ccc(N=CC2CO2)cc1 (configuration not stated) : -1
CCCCCCC(=O)Nc1ccc(OC(=O)CCCCCC)c(=O)cc1 : 1
CCCc1cc(-c2ccc(O)c(CCC)c2)ccc1O : 1
COC(=O)c1c(COC(=O)NC(C)C)c2n(c1C)CS(=O)(=O)C2 : 1
NN(Cc1ccccc1)c1ccccc1 : 1
F[Si](c1ccccc1)(c1ccccc1)c1ccccc1 : -1

GET /call?item= CCOC(=O)N1CCN(CCCCCCOc2ccc(C(C)(C)C)cc2)CC1 returns the recorded outcome of this test.
1

And then Cn1cccc1C(/C=C/c1ccccc1[N+](=O)[O-])c1cccn1C , what is it?
-1

And then Cc1nc2c(cnn2-c2ccccc2)c(=O)o1 , what is it?
-1

And then CCCN(CCC)CCNc1ccc(C)c2sc3ccccc3c(=O)c12 , what is it?
1

###

Assay text: NCI Yeast Anticancer Drug Screen. Data for the mlh1 rad18 strain (AID 175)
Condition set: S. cerevisiae mlh1 rad18 strain growth inhibition; at 50.0 µM (retest, dose inferred, filed as 5.0)
Protocol: Growth inhibition of yeast strains with defined genetic alterations is measured as a screen for potential anti-cancer activity. Selected strains with alterations in DNA damage repair or cell cycle control were exposed to compounds and growth inhibition was measured relative to vehicle treated controls. The strain used in this assay is mlh1 rad18
The panel holds about 79,000 compounds, 15% with a hit somewhere; the sample as a whole holds those more often. The source made the active and inactive calls. Cut-off read from the data, not from the text of the source: active = growth inhibition above about 70%; inactive = the rest.
Give your call using only these classes: TRUE (active), FALSE (inactive)

O=C(Nc1nnc(-c2ccccc2)s1)c1cc(=O)c2cc(Cl)ccc2o1 : TRUE
O=C1CNC(=O)c2cc(N=Cc3cc(Br)ccc3O)ccc2N1 : TRUE
CCN(CCCOc1ccccc1)CCN(CC)CCCOc1ccccc1 : FALSE
CC1CC(=O)OC(C(=O)c2ccccc2)N1c1ccc(C(F)(F)F)cc1N (stereo not given) : FALSE

Attention now turns to another entry.
GET /call?item= O=C(Nc1cc(Cl)c(Cl)cc1Cl)C(=O)C(C(=O)c1ccc2ccccc2c1)C1OC(=O)c2ccccc21 (stereo not given) returns the recorded outcome of this test.
FALSE

###

Assay text: NCI Yeast Anticancer Drug Screen. Data for the rad50 strain (AID 155);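 note: 0% = growth of vehicle-only cultures of the same strain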
Condition set: S. cerevisiae rad50 strain growth inhibition; at 50.0 µM; hits give high values
Procedure: Growth inhibition of yeast strains with defined genetic alterations is measured as a screen for potential anti-cancer activity. Selected strains with alterations in DNA damage repair or cell cycle control were exposed to compounds and growth inhibition was measured relative to vehicle treated controls. The strain used in this assay is rad50
About 79,000 compounds went through this panel and 15% of them were active in at least one assay; those are over-represented in the sample as a whole.
Outcome label depends on growth inhibition relative to 70%: at/above gives Y, below gives N.

COc1cc(C(=O)C2OC2c2ccc(Cl)cc2)c([N+](=O)[O-])cc1OC (stereo not drawn) : N
CC12CCCCC1CCC(Br)C2=O (stereo not drawn) : N
CC(=O)Nc1cccc2c1ccc1ccc3ccccc3c12 : Y
CC(=O)Oc1c([N+](=O)[O-])cc(-c2ccccc2)cc1[N+](=O)[O-] : Y
Cc1cc(O)ccc1C1(c2ccc(F)cc2)OC(=O)c2ccccc21 (stereo not drawn) : Y

Dear colleague, could you confirm whether COc1ccc(/C=C2\CCCc3ccccc3C2=O)cc1 has growth inhibition at or above 70%?
N

And then O=C1c2ccccc2C(O)(c2ccccc2)c2c(Cl)cccc21 (stereo not drawn) , what is it?
Y

And then COC(=O)C1C2CC3c4[nH]c5cc(OC)c(Br)cc5c4CCN3CC2CC(OC(=O)c2cc(OC)c(OC)c(OC)c2)C1OC (stereo not drawn) , what is it?
Y

And then O=C(Nc1ncnc2c1ncn2C1CC(O)C(CO)O1)c1ccccc1 (stereo not drawn) , what is it?
N

And then CCCN(CCC)C(=S)N/N=C/c1cccc(C)n1 , what is it?
Y

And then O=C(CC(O)(c1ccccc1)c1ccc(Cl)cc1)NC(=O)c1ccccc1O (stereo not drawn) , what is it?
Y

And then S=c1sc2ccccc2n1CNc1ccccc1 , what is it?
N

And then Cc1ccc(C(C)C)c(O)c1N/N=C/c1cc(Cl)ccc1O , what is it?
Y

And then COc1ccc(/C=N/n2c(C)nc3c(sc(=S)n3-c3ccccc3)c2=O)cc1 , what is it?
N

###

Assay text: NCI Yeast Anticancer Drug Screen. Data for the mlh1 rad18 strain (AID 175)
Condition set: S. cerevisiae mlh1 rad18 strain growth inhibition; at 50.0 µM
The panel holds about 79,000 compounds, 15% with a hit somewhere; the sample as a whole holds those more often. The source made the active and inactive calls. No stated cut-off is given here; in the data, active means growth inhibition above about 70%; inactive means the rest.
Give your call using only these classes: active, inactive

Completed entries (count: 8):
NC1C(=O)C2CCCCC2C(=O)C1C(=O)c1ccccc1 (stereo not given) : inactive
C=CCOC(=O)CC(O)C(=O)OCC=C (stereo not given) : inactive
COc1ccc(/C(Cl)=C(/c2ccc(O)cc2)c2ccc(OCCN(C)C)cc2)cc1 : active
Fc1ccc(CSC(=S)Nc2ccc(F)cc2)cc1 : active
Cc1ncc(Br)c(C(=O)O)n1 : inactive
CCCCCCCCCCCCCCCC(=O)NCC[N+](C)(CC)CC : inactive
O=S(=O)(O)c1ccc2c(c1)C1C(C3C2C2(Cl)C(Cl)=C(Cl)C3(Cl)C2(Cl)Cl)C2(Cl)C(Cl)=C(Cl)C1(Cl)C2(Cl)Cl (stereo not given) : active
CCN(CC)c1ccc(N=C2C=C(C(=O)Nc3cccc(Cl)c3)C(=O)c3ccccc32)c(C)c1 : inactive

GET /call?item= CCN(CC)CCNc1ccc(C)c2oc3ccc(O)cc3c(=O)c12 returns the recorded outcome of this test.
active

And then CC(C)(C)C(=O)CC(=O)C(F)(F)C(F)(F)C(F)(F)F.CC(C)(C)C(=O)CC(=O)C(F)(F)C(F)(F)C(F)(F)F.CC(C)(C)C(=O)CC(=O)C(F)(F)C(F)(F)C(F)(F)F.[Er] , what is it?
inactive
